- System: U87MG cells
- assay_comment: MTT cell viability, U87MG
- Type: cell-based
- condition_info: Homo sapiens, U-87 MG, U87MG, 24 h
List of pEC50 values.
Scale note: pEC50 = -log10(concentration in M).

Known pEC50 results, listed for orientation:
C=CC(=O)Nc1cc2c(Nc3ccc(F)c(Cl)c3)ncnc2cc1OCCCN1CCOCC1 [Mol 25, canertinib, reference compound] :: 4.79
Brc1ccc(Nc2ncnc3ccccc23)cc1 :: 3.89
CCCCN1CCCc2cc(CN(CCN3CCOCC3)C(=S)Nc3cc(F)cc(F)c3)ccc21 :: 3.98

// next item, pEC50 requested
Asked: Entry C=CC(=O)Nc1ccc2ncnc(Nc3cccc(Br)c3)c2c1 : reported pEC50 = ?
Given back: 4.64
